Please respond with reported growth inhibition for every item in the list.
- test_details: OD615 S. cerevisiae growth inhibition, permissive medium, pilot counter-assay, permissive growth control for S. cerevisiae lifespan shortening project (AID 705)
- experimental_parameters: OD615, 24 h, at 10 µM, active compounds read high
Answers are plain numbers, in %.

>>> test_value("O=C1CC2CS(=O)(=O)CC2N1C1CCCCC1 (stereo unspecified)")
-8.38
>>> test_value("COc1ccccc1Cc1nc(-c2ccc(Br)o2)no1")
-0.335
>>> test_value("OCCCc1nc2ccccc2n1CCOc1ccccc1")
-10.4
>>> test_value("COc1ccc(-c2nnc(COc3ccc4ccccc4c3)o2)cc1OC")
-7.47
>>> test_value("CC(=O)OC(/C(O)=C(\\C#N)c1nc2ccccc2[nH]1)c1ccccc1 (stereo unspecified)")
0.55
>>> test_value("CC(C)c1ccc(NC(=O)c2cnn(-c3ccccc3)c2NC(=O)c2ccco2)cc1")
-2.46

Your task in this section: give growth inhibition for each listed record.
1. CC(=O)c1ccc(NC(=O)C2CCCN2S(=O)(=O)c2cccc3cccnc23)cc1 (stereo unspecified)
2. CCN(CC)CCCNc1nc2ccccc2[nH]1
3. Cc1cc(Cl)ccc1N=Cc1c(O)n(C)c(=O)n(C)c1=O
4. Cn1c(NC(=O)c2ccc(F)c(F)c2)cc(=O)n(C)c1=O
5. COc1ccc(Cl)cc1NC(=O)C1CSC(c2ccncc2)=N1 (stereo unspecified)

// result
[-11.2, -4, 1.62, -2.93, 1.68]
